# assayed-target: beta-catenin/TCF4 engagement (Homo sapiens, UniProt P35222)
# Construct: expressed in transfected cells; host or cells: HEK293
# Sequence (P35222 whole entry): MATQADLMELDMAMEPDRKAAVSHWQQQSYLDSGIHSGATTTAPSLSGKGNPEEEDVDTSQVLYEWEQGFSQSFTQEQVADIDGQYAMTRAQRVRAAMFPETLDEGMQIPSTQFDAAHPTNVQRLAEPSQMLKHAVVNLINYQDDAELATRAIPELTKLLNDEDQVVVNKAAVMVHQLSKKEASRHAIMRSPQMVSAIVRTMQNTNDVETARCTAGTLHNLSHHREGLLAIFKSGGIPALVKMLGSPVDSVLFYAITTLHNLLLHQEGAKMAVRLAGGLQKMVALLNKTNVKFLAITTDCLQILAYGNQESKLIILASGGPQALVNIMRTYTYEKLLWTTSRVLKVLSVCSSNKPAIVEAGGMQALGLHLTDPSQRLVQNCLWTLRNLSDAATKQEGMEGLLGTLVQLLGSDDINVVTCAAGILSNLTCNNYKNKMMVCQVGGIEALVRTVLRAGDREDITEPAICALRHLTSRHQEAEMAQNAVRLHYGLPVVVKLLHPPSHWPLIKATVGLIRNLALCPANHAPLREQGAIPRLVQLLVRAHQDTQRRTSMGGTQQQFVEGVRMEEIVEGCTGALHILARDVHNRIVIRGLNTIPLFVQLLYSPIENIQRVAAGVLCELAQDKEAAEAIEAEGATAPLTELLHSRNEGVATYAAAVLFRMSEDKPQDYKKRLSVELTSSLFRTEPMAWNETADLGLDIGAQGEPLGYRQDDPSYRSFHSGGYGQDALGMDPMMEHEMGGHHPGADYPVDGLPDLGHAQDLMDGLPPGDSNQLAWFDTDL
# method-summary: Nano-BRET target engagement assay (B-cat-Halo & TCF4-Luc in HEK293 cells)
# Format: cell-based
# condition: absolute IC50; read-out: NanoBRET Abs IC50
quantity: IC50 (µM)
Give the number; µM is assumed, so skip it.

// query Fill blank: measured IC50 of the compound CC(=O)N1CCC[C@]12CC=CCCCC1(CCCC=CCCCCCC[C@@](C)(C(=O)N[C@@H](Cc3ccccc3Cl)C(=O)N[C@@H](Cc3csc4ccccc34)C(=O)N[C@@H](CCC(N)=O)C(N)=O)NC(=O)[C@H](CCO)NC(=O)[C@H](Cc3ccccc3)NC(=O)[C@H](C)NC(=O)[C@H](C)NC(=O)[C@H](CN(CC(=O)O)CC(F)(F)F)NC(=O)[C@H](CC(=O)O)NC1=O)NC(=O)[C@H](CC(C)(C)C)NC(=O)[C@H](CC(=O)O)NC2=O (some centres unmarked) is ____.
// result 11.3

// query Next: CC(=O)N1CCC[C@]12CC=CCCCC1(CCCC=CCCCOC(=O)N3CC[C@@](C(=O)N[C@@H](Cc4ccccc4Cl)C(=O)N[C@@H](Cc4csc5ccccc45)C(=O)N[C@@H](CCC(N)=O)C(N)=O)(C3)NC(=O)[C@H](Cc3ccccc3)NC(=O)[C@H](Cc3ccccc3)NC(=O)[C@H](C)NC(=O)[C@H](C)NC(=O)[C@H](CC(=O)O)NC(=O)[C@H](CC(=O)O)NC1=O)NC(=O)[C@H](CC(C)(C)C)NC(=O)[C@H](CC(=O)O)NC2=O (some centres unmarked)
// result 7.5

###

# method-summary: CHI Log D procedure
# Type: physicochemical
# condition: pH 7.4, CHI Log D
quantity: chromatographic logD
Answer as a number with no unit attached.

// query Can you look up the measured chromatographic logD of CC(=O)N1CCC[C@]12CC=CCCCC1(CCCC=CCCCCCC[C@@](C)(C(=O)N[C@@H](Cc3ccccc3)C(=O)N[C@@H](Cc3csc4ccccc34)C(=O)N[C@@H](CCC(N)=O)C(N)=O)NC(=O)[C@H](CC(N)=O)NC(=O)[C@H](Cc3ccc(F)cc3)NC(=O)[C@H](C)NC(=O)[C@H](C)NC(=O)[C@H](CCC(=O)O)NC(=O)[C@H](CC(=O)O)NC1=O)NC(=O)[C@H](C)NC(=O)[C@H](CC(=O)O)NC2=O (stereo partly drawn) for me?
// result 2.04

// query // repeat for CC(=O)N[C@@H](Cc1ccccc1)C(=O)N[C@@H](CC(=O)O)C(=O)N[C@@H](C)C(=O)NC12CN(C1)C(=O)OCC=CCCCCCC[C@@](C)(C(=O)N[C@@H](Cc1ccccc1)C(=O)N[C@@H](Cc1c[nH]c3ccccc13)C(=O)N[C@@H](CCC(N)=O)C(N)=O)NC(=O)[C@H](C(C)C)NC(=O)[C@H](Cc1ccccc1)NC(=O)[C@H](C)NC(=O)[C@H](C)NC(=O)[C@H](CC(=O)O)NC(=O)[C@H](CC(=O)O)NC2=O and report
// result 1.33

// query Query CC(=O)N1CCC[C@]12CC=CCCCC1(CCCC=CCCCOC(=O)N3CC[C@@](C(=O)N[C@@H](Cc4ccccc4Cl)C(=O)N[C@@H](Cc4csc5ccccc45)C(=O)N[C@@H](CCC(N)=O)C(N)=O)(C3)NC(=O)[C@H](CC(N)=O)NC(=O)[C@H](Cc3ccccc3)NC(=O)[C@H](C)NC(=O)[C@H](C)NC(=O)[C@H](CC(=O)O)NC(=O)[C@H](CC(=O)O)NC1=O)NC(=O)[C@H](CC1CCCCC1)NC(=O)[C@H](CC(=O)O)NC2=O (stereo partly drawn) next
// result 2.27
